molecular target: HLA A*3201 (Homo sapiens, UniProt P04439, A270S/D101S/D185E/E176V/E277Q/F133L/G103R/G107R/G231S/H175R/I121M/I218V/I322F/K168Q/L105A/L300P/L318F/M331R/P208A/P217A/Q94H/R106L/R138Q/S129P/T104I/T323A/T345S/V100E/V321M/V358M); assay: biochemical; type: binding
Decision: Normalized average relative binding affinity(ARB) beneath 0.4 gives MET; Normalized average relative binding affinity(ARB) meeting or exceeding 0.4 gives NOT MET.

XXXRXXXXX [3064.0075] | MET
XXXXXXXIX [3064.0148] | NOT MET
XXXXIXXXX [3064.0088] | NOT MET
XXXXXFXXX [3064.0105] | NOT MET
XXXXPXXXX [3064.0093] | MET
XXXHXXXXX [3064.0067] | MET
XXXXXKXXX [3064.0109] | MET
XXXXXXPXX [3064.0133] | MET
XXXXKXXXX [3064.0089] | MET
XXXXXSXXX [3064.0116] | NOT MET
XXXXVXXXX [3064.0098] | NOT MET
XXXXXXXVX [3064.0158] | NOT MET
XXXYXXXXX [3064.0080] | NOT MET
XXXSXXXXX [3064.0076] | MET
XXXXLXXXX [3064.0090] | NOT MET
